Biological target: T1, hIL-6R on hIL-6-responsive human cells (XG-1 myeloma line, HepG2 hepatoma line) (human, UniProt P08887 20-468)
T1 sequence (looked up): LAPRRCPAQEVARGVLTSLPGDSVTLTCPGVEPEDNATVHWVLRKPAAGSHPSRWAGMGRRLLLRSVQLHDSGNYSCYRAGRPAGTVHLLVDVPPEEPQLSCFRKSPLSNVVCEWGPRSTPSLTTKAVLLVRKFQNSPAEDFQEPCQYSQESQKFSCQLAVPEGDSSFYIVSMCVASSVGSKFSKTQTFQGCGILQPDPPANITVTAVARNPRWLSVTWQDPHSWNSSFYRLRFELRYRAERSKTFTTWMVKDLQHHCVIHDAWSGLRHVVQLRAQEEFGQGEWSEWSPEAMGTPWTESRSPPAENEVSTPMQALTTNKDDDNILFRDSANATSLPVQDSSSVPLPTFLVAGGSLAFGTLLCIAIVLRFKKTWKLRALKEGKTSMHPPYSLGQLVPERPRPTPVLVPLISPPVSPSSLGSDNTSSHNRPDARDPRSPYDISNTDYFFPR
Assay: cell-based or functional assay
Measured XG-1 cell proliferation Inhibition IC50 accompanies every entry in the list below.
Answer with a number only, understood to be in nM.

The examples below pair each entry with its known result.
VQ8A9-6 (antibody, V domains shown, Human variable regions with mouse constant region (hybridoma-derived chimeric antibody); also called VQ8A9-6 mIgG1) VH: EVQLVESGGNLVQPGRSLRLSCAASGFIFDDYAMHWVRQAPGKGLEWVSGISWNSGSIGYADSVKGRFTISRDNAKNSLYLQMNSLRAEDTALYYCAKDGGSSWLPFVYYYGMDVWGQGTTVTVSS VL: EIVMTQSPATLSVSPGERATLSCRASQSISSNFAWYQQKPGQAPRLLIYGASTRATGIPARFSGSGSGTDFTLTISSLQSEDFAVYYCQQYSSWPPYTFGQGTKLEIK	0.4
VV1G4-7 (antibody, IgG2a, V domains shown, Human variable regions with mouse constant region) VH: QVQLVQSGAEVKEPGASVKVSCKASGYTFTSYDIIWVRQATGQGLEWMGWMNPNSGNTGYTQNLQGRVTLTRNTSITTVYMELSSLSSEDTAVYYCARDYSSHYYGLDVWGQGTTVTVSS VL: DIQLTQSPSFLSTSIGDRVTITCWASQDISNYLAWYQQKPGKAPKLLIFVASTLQSGVPSRFSGSGSGTEFTLTISSLQPEDFATYYCQQFNSYPLTFGGGTKVEIK	1.8
VQ8F11-21 (antibody, V domains shown, Human variable regions with mouse constant region; also called VQ8F11-21 mIgG2a) VH: EVQLVESGGGLVQPGRSLRLSCAASRFTFDDYAMHWVRQAPGKGLEWVSGISWNSGRIGYADSVKGRFTISRDNAENSLFLQMNGLRAEDTALYYCAKGRDSFDIWGQGTMVTVSS VL: DIQMTQSPSSVSASVGDRVTITCRASQGISSWLAWYQQKPGKAPKLLIYGASSLESGVPSRFSGSGSGTDFTLTISSLQPEDFASYYCQQANSFPYTFGQGTKLEIK	0.62

In the following, a different binder is considered.
Exercise: Can you share its XG-1 cell proliferation Inhibition IC50? I mean this binder: VV6A9-5 (antibody, V domains shown, Human variable regions with mouse constant region; also called VV6A9-5 mIgG2a) VH: EVQLVESGGGLVQPGRSLRLSCAASGFTFDDYALHWVRQAPGKGLEWVSGVSWNGGRIGYADSVKGRFTISRDNAKNSLFLQMNSLRVEDTALYYCAKGRDAFDIWGQGTLVTVSS VL: DIQMTQSPSSVSASVGDRVTITCRASQGISSWLAWYQQKPGKAPKLLIYAASSLQSGVPSRFSGSGSGTDFTLTISSLQPEDFATYYCQHAYSFPYTFGQGTKLEIK
Key: 1.1
